Each recorded value in this set is attributed to paper PMC4447944.

Target: hERK4 (Homo sapiens, UniProt P31152)
Construct: purchased DiscoverX
Sequence (P31152 whole entry): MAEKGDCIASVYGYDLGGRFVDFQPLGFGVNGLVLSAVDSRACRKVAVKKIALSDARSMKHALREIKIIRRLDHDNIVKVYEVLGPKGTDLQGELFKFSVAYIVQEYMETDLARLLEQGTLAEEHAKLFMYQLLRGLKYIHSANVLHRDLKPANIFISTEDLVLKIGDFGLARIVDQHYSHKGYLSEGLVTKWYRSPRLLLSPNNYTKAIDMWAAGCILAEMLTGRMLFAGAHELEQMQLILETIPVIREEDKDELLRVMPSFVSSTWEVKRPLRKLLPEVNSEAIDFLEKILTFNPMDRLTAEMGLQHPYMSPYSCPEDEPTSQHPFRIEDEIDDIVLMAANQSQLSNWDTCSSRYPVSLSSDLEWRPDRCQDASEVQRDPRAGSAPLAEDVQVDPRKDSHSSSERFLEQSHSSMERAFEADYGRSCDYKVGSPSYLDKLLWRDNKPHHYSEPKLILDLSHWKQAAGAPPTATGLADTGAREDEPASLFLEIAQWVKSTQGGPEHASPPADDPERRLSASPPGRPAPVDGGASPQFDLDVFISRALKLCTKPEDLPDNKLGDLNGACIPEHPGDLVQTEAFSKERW
Assay: KINOMEscan
Type: binding
Property: IC50

INPUT: Identify measured IC50 corresponding to Cc1cn(CCN2CCN(c3ccccc3-c3cc(C#N)cc(C(=O)NCCCN4CCCC4)c3)CC2)c2ccccc12 [LLY-507]
OUTPUT: > 20 µM

* * *

Biological target: hABL1(pF317L) (Homo sapiens, UniProt P00519, F317L)
Sequence (P00519 whole entry F317L): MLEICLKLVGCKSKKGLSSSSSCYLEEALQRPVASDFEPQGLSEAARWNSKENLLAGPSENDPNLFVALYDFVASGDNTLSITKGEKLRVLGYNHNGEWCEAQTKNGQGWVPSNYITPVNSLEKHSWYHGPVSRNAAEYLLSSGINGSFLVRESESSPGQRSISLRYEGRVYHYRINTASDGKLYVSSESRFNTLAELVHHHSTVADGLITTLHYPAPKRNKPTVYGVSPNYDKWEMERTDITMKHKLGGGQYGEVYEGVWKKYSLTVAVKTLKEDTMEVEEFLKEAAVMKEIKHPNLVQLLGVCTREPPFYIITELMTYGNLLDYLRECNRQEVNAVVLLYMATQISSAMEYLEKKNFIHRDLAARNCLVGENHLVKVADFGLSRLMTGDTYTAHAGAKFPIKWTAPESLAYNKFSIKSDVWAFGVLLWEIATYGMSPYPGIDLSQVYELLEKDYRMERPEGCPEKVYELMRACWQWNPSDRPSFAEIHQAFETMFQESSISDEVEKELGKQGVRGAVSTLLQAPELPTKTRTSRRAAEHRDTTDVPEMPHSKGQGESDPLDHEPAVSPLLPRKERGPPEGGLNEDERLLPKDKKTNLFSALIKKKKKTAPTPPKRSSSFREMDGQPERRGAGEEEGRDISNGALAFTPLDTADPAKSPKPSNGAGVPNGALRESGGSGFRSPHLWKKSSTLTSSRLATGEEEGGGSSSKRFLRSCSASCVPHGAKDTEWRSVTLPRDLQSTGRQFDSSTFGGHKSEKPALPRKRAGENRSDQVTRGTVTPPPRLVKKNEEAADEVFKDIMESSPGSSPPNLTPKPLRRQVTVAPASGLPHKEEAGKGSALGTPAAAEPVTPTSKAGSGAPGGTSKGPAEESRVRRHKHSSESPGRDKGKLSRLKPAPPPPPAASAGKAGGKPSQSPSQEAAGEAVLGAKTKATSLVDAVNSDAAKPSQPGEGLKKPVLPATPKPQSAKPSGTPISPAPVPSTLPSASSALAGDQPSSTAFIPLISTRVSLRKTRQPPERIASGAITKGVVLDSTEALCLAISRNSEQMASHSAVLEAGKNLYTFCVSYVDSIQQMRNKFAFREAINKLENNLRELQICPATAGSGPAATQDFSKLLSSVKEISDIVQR
Experiment: KINOMEscan
Property: IC50

INPUT: Identify measured IC50 corresponding to Cc1cn(CCN2CCN(c3ccccc3-c3cc(C#N)cc(C(=O)NCCCN4CCCC4)c3)CC2)c2ccccc12 [LLY-507]
OUTPUT: > 20 µM
